The reported numbers originate from PubChem BioAssay (NCI).

tested on: NCI-H23 lung; assay: NCI-60 one-dose screen, 48 h (100 = growth as untreated, 0 = no growth, -100 = all killed); settings: 10 µM unless noted
This is part of a sample that, as a whole, favours compounds with a hit. Of some 83,000 tested, about 20% had one in any assay.
Label Condition met when growth is at or above 70%; anything below gets Condition not met.

Below are worked cases with known answers.
1) CC(C)c1ccc(NC(=O)Nc2ccc(NC(=O)c3ccccc3N)cc2)cc1 | Condition not met
2) N/C(=N\c1nc2ccccc2s1)NC(=NC1CCCCC1)NC1CCCCC1 | Condition not met
3) CCOC(=O)Cn1c(=O)c2c3ccccc3n(C)c2n2nnc(-c3ccccc3)c12 | Condition met
4) COc1ccc(C(c2cc(OC)c(OC)c(OC)c2)N2CCN(Cc3ccccc3)CC2)cc1 (centres undefined) | Condition met
5) CC(=O)Nc1c(Cl)cc(Cl)c2c1Cc1cc([N+](=O)[O-])ccc1-2 | Condition met
6) C[C@H]1[C@H](C)CC[C@]2(C(=O)O)CC[C@]3(C)C(=CC[C@@H]4[C@@]5(C)C[C@@H](Cc6cn([C@@H]7O[C@H](CO)[C@@H](O)[C@H](O)[C@H]7O)nn6)[C@H](O)C(C)(C)[C@@H]5CC[C@]43C)[C@H]12 | Condition met

Dear colleague, could you confirm whether "CCn1c2ccc(O)cc2c2c(C)c3c[n+](C(C)C)ccc3c(C)c21" has growth at or above 70%?
Condition not met
